Tested on: Streptococcus pneumoniae ATCC 6303
Assay: In vitro agar dilution MIC, organism code XX
Assay type: cell-based
Details: Table 1B, unit assumed
Reported metric: MIC (µg/mL)

>>> numeric_readout("CC[C@H]1OC(=O)[C@@](C)(F)C(=O)[C@H](C)[C@@H](O[C@@H]2O[C@H](C)C[C@H](N(C)C)[C@H]2O)[C@](C)(OC/C=C/c2cnc3ccc(C=NO)cc3c2)C[C@@H](C)C(=O)[C@H](C)[C@H]2NC(=O)O[C@@]21C")
0.015
>>> numeric_readout("CC[C@H]1OC(=O)C(C)(F)C(=O)[C@H](C)[C@@H](O[C@@H]2O[C@H](C)C[C@H](N(C)C)[C@H]2O)[C@](C)(OCC#CC(=O)c2cccs2)C[C@@H](C)C(=O)[C@H](C)[C@H]2NC(=O)O[C@@]21C (stereo partly shown)")
0.06
>>> numeric_readout("CC[C@H]1OC(=O)[C@@](C)(F)C(=O)[C@H](C)[C@@H](O[C@@H]2O[C@H](C)C[C@H](N(C)C)[C@H]2O)[C@](C)(OC/C=C/c2ccc3ncccc3c2)C[C@@H](C)C(=O)[C@H](C)[C@H]2NC(=O)O[C@@]21C")
0.015
>>> numeric_readout("CC[C@H]1OC(=O)[C@@](C)(F)C(=O)[C@H](C)[C@@H](O[C@@H]2O[C@H](C)C[C@H](N(C)C)[C@H]2O)[C@](C)(OC/C=C/c2cnc3ccc(NC(=O)OC(C)(C)C)cc3c2)C[C@@H](C)C(=O)[C@H](C)[C@H]2NC(=O)O[C@@]21C")
0.06
